Every entry's value here was drawn from patent EP4768487A1.

List of pIC50 tested on UniProtKB P09874.
Sequence (P09874 whole entry): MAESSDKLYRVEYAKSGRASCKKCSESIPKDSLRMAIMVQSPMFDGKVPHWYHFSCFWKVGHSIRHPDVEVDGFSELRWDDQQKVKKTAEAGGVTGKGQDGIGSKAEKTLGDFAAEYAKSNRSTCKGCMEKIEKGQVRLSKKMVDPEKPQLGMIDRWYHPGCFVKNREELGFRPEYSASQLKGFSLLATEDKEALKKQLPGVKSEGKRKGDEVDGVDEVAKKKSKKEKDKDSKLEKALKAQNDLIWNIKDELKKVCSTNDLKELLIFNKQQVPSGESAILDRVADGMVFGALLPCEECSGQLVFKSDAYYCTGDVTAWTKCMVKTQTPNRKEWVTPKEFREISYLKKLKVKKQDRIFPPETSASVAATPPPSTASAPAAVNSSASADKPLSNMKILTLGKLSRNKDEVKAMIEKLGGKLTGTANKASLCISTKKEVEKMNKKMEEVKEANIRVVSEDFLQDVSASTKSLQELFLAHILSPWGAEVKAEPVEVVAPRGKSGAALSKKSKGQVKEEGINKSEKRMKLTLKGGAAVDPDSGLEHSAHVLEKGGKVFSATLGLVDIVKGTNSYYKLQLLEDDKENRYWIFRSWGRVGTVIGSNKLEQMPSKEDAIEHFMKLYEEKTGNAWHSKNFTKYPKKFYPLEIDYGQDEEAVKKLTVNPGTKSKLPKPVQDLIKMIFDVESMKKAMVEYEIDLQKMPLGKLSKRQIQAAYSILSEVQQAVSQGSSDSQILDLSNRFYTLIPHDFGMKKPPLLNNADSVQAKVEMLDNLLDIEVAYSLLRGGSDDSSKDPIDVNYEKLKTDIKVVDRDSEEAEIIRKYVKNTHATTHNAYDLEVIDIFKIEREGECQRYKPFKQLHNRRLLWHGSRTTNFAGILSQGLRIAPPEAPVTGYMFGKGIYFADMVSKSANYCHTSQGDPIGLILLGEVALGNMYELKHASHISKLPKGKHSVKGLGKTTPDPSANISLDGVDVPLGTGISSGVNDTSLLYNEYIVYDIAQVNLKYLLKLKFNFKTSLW
pIC50: −log10 of the molar value.

molecule: CCc1cc2c([nH]c1=O)CC(CN1CCN(c3ccc(C(=O)NC)nc3)CC1)CC2 (stereo not shown)
systemName: UniProtKB P09874
pIC50: ≥ 7.30

molecule: CCc1cc2c([nH]c1=O)CC(CN1CCN(c3ccc(C(=O)NC)nc3F)C[C@H]1C)OC2 (stereo partly shown)
systemName: UniProtKB P09874
pIC50: 6.30 to 7.30

molecule: CNC(=O)c1ccc(C2=CCN(CC3Cc4[nH]c(=O)c(Cl)cc4CO3)CC2)c(F)n1 (stereo not shown)
systemName: UniProtKB P09874
pIC50: 6.30 to 7.30

[in] Answer with the recorded pIC50 for the molecule listed here: CNC(=O)c1ccc(N2CCN(CC3Cc4[nH]c(=O)c(C5CC5)cc4CO3)CC2)c(F)n1 (stereo not shown)
[out] 6.30 to 7.30
